Data origin, for the record: patent US7053088B2

Value type: melting point (°C)
Give just the numeric value; °C need not be written.

Molecule: CC(C)(C)c1ccc(-c2cc(Nc3ccc4ncsc4c3)ncn2)cc1
melting point [°C]: 237

Looking for the measured melting point of `FC(F)(F)c1ccc(-c2cc(Nc3ccc4ncsc4c3)nnc2-c2ccccc2)cc1` , can you help? 272

---

A collection of molecules and their measured melting point
Give just the numeric value; °C need not be written.

Molecule: FC(F)(F)c1ccc(-c2cc(Nc3ccc4c(n3)NCCC4)ncn2)cc1
melting point [°C]: 168

# input for lookup
Looking for the measured melting point of `FC(F)(F)c1ccc(-c2cc(Nc3cccc4ccc(Cl)nc34)ncn2)cc1` , can you help? 240

---

Value type: melting point

Looking for the measured melting point of CC(C)(C)c1ccc(-c2cc(Nc3ccc4[nH]ccc4c3)ncn2)cc1 [Example 54] , can you help? 238 to 240 °C

Looking for the measured melting point of `FC(F)(F)c1ccc(-c2cc(Nc3ccc4[nH]ncc4c3)ncn2)cc1` , can you help? 224 to 226 °C

Looking for the measured melting point of `COc1cccc(Nc2cc(-c3ccc(C(C)(C)C)cc3)ncn2)c1` , can you help? 184 to 187 °C

---

A collection of compounds and their measured melting point

Compound: CC(=O)Nc1nc2c(Nc3cc(-c4ccc(C(F)(F)F)cc4)ncn3)cccc2s1
melting point: > 250 °C

Looking for the measured melting point of CC(C)(C)c1ccc(-c2cc(Nc3ccc4cc[nH]c4c3)ncn2)cc1 [Example 48] , can you help? 194 to 196 °C

Looking for the measured melting point of `FC(F)(F)c1ccc(-c2cc(Nc3ccc(Cl)cc3)ncn2)cc1` , can you help? 193 to 196 °C
